enzyme activity, Lymphs values by entry
tested on: lymphocytes; assay: peptidase activity in leukemia and non-leukemia patients, lymphocytes (Table 6C); format: cell-based, human; parameters: unit not given here; details: N197 normal

Worked examples follow.
| COMPOUND | PARAMETER | REPORTED_RESULT |
| --- | --- | --- |
| O=C1OC2(c3ccc(NC(=O)[C@@H]4CCCN4)cc3Oc3cc(NC(=O)[C@@H]4CCCN4)ccc32)c2ccccc21 [PRO, (H-L-Pro)2 --Rho 110 .2TFA] | enzyme activity, Lymphs | 0.57 |
| NCC(=O)N1CCC[C@H]1C(=O)Nc1ccc2c(c1)Oc1cc(NC(=O)[C@@H]3CCCN3C(=O)CN)ccc1C21OC(=O)c2ccccc21 [GP, (H-Gly--Pro)2 Rho .2TFA] | enzyme activity, Lymphs | 5.97 |
| C[C@@H](O)[C@H](N)C(=O)N1CCC[C@H]1C(=O)Nc1ccc2c(c1)Oc1cc(NC(=O)[C@@H]3CCCN3C(=O)[C@@H](N)[C@@H](C)O)ccc1C21OC(=O)c2ccccc21 [TP, (H-L-Thr--Pro)2 Rho 110 .2TFA] | enzyme activity, Lymphs | 1.96 |

Consider the additional compound presented here.
[in] Fill in the blank: the reported enzyme activity, Lymphs of NCCCC[C@H](N)C(=O)Nc1ccc2c(c1)Oc1cc(NC(=O)[C@@H](N)CCCCN)ccc1C21OC(=O)c2ccccc21 [LYS, (H-L-Lys)2 Rho 110 .4TFA] is ____.
[out] 0.70
